system: MOLT-4 leukemia; experiment: NCI tumour cell line growth inhibition, 48 h

- compound: "O=C(Nc1ccc(-n2ccc3c(NC(=O)c4ccccc4)nccc32)cc1)c1ccc(Cl)c(C(F)(F)F)c1"
  value-modifier: ">"
  TGI, µM: 20.7
- compound: "CCOC(=O)c1csc(NC(=O)CN2CCOCC2)n1"
  value-modifier: "="
  TGI, µM: 48.5
- compound: "CC(C)(C)OC(=O)NCCCCC1NC(=O)[C@@H]2Cc3c([nH]c4ccccc34)C(C3CCCCC3)N2C1=O (stereo not given in full)"
  value-modifier: "="
  TGI, µM: 44.9
- compound: "CN(C)c1ccc(/C=C\\C2=[N+](C)c3ccccc3C2(C)C)cc1"
  value-modifier: ">"
  TGI, µM: 100
- compound: "CC(=O)NC(Cc1ccc(O)cc1)C(=O)O (stereo not given)"
  value-modifier: ">"
  TGI, µM: 100

----------
system: MCF7 breast; experiment: NCI tumour cell line growth inhibition, 48 h
Where a SMILES comes first, the peptide text is derived from it. [ ]: non-standard residue; d: D form. The star is where a group is joined. NMeAc5c = CNC1(C(=O)O)CCCC1; Boc = CC(C)(C)OC(=O)*; OBn = c1ccc(CO*)cc1
value-kind: TGI

- molecule: "CN(C(=O)C(Cc1ccccc1)NC(=O)OC(C)(C)C)C1(C(=O)NC(Cc2ccccc2)C(=O)OCc2ccccc2)CCCC1 (stereo not drawn) (Boc-Phe-[NMeAc5c]-Phe-OBn; configuration not given here)"
  assay-system: "MCF7 breast"
  reported: "> 100 µM"
- molecule: "CN1CCCCC1CCN1c2ccccc2Sc2ccc(Cl)cc21 (centres undefined)"
  assay-system: "MCF7 breast"
  reported: "9 µM"
- molecule: "COC(=O)C1SC(SC)=NC12c1ccccc1Nc1ccccc12 (centres undefined)"
  assay-system: "MCF7 breast"
  reported: "82.7 µM"
- molecule: "Fc1[nH]nc2ccc([C@@H]3Nc4ccc5[nH]ncc5c4[C@H]4C5CCC(C5)[C@@H]34)cc12 (some centres undefined)"
  assay-system: "MCF7 breast"
  reported: "12.6 µM"

----------
tested on: SR leukemia; experiment: NCI tumour cell line growth inhibition, 48 h; in the data active means GI50 below about 0.43 µM; inactive means the rest
*1 amine or outer side, *2 acyl side, *3 side chain or, on linkers, in order; H or OH if unused. Where a SMILES comes first, the peptide text is derived from it. Bridges are numbered along the chain shown (N, C = ends). [ ]: non-standard residue; d: D form. The star is where a group is joined. Phe(3,5-F2) = N[C@@H](Cc1cc(F)cc(F)c1)C(=O)O; Pro(4R-Me) = C[C@H]1CN[C@H](C(=O)O)C1; aThr = C[C@H](O)[C@H](N)C(=O)O; Pip = O=C(O)[C@@H]1CCCCN1; X10 = Fc1cc(C2CC2)ccc1N*; CO = O=C([*:1])[*:2]
Labels: T (active), F (inactive)

- compound: "C[C@@H]1C[C@H]2C(=O)O[C@@H](C)[C@H](NC(=O)[C@H](Cc3cc(F)cc(F)c3)NC(=O)Nc3ccc(C4CC4)cc3F)C(=O)N3CCC[C@H]3C(=O)N3CCCC[C@H]3C(=O)N[C@@H](C)C(=O)N2C1 ({X10-CO}-[Phe(3,5-F2)][aThr]P[Pip]A[Pro(4R-Me)]; ester 2-C)"
  category-label: "T"
- compound: "CN1CCCCC1CCN1c2ccccc2Sc2ccc(Cl)cc21 (stereo not drawn)"
  category-label: "F"
- compound: "OCCN(CCO)c1ncnc2c1ncn2Cc1ccc(CCl)cc1"
  category-label: "F"
- compound: "O=C(Nc1ccc(F)cc1)Nc1ccc(Cl)c([N+](=O)[O-])c1"
  category-label: "F"
- compound: "NS(=O)(=O)OC[C@@H]1C[C@@H](n2ccc3c(NC4CCc5ccccc54)ncnc32)C[C@@H]1O (stereo partly drawn)"
  category-label: "T"
- compound: "CCN1CCN(Cc2ccc(NC(=O)c3cccc(C#Cc4cccc5[nH]nc(N)c45)c3)cc2C(F)(F)F)CC1"
  category-label: "T"
- compound: "OC1CSSC1Cn1cnc2c(Nc3ccc(OCc4cccc(F)c4)c(Cl)c3)ncnc21 (stereo not drawn)"
  category-label: "T"
- compound: "Nc1ccccc1C#C/C=C\\C#Cc1ccccc1OC(F)(F)F"
  category-label: "F"
- compound: "Cc1ccnc2c1ccc1c(C)ccnc12"
  category-label: "T"
- compound: "OCc1cc2ccccc2c2c3c(ccc12)OCO3"
  category-label: "F"
- compound: "C=CC(=O)Nc1cc(Nc2ncc(C(=O)OC(C)C)c(-c3cn(C)c4ccccc34)n2)c(OC)cc1N(C)CCN(C)C"
  category-label: "F"
- compound: "Cc1cc(-c2nc(C(=O)Nc3cc4oc(N5CCOCC5)nc4nc3N3CC[C@@H](O)C3)co2)ccn1"
  category-label: "F"
- compound: "CCN1/C(=C\\c2cc[n+](CC)c3ccccc23)C=Cc2ccccc21"
  category-label: "T"
